- measurement target: cellular GLS activity in PC3 cells (Homo sapiens (Human), UniProt O94925)
- Sequence (O94925 73-669): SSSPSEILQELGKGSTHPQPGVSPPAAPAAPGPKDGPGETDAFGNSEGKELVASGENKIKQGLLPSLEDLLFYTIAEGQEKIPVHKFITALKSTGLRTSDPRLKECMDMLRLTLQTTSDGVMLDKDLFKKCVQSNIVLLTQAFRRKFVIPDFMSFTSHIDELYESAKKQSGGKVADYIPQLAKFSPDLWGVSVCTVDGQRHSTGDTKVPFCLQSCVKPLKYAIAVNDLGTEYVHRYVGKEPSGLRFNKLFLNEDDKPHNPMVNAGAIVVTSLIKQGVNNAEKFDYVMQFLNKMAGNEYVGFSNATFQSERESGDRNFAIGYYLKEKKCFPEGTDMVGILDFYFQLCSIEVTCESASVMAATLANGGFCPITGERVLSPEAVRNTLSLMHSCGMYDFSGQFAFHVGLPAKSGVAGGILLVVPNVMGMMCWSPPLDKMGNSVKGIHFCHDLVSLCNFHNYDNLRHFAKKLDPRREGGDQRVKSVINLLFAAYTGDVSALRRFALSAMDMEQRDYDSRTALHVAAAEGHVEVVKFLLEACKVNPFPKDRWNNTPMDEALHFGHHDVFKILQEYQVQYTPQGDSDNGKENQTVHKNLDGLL
- procedure text: GLS Cell Potency Assay (PC3 coupled assay measuring cellular glutamate depletion)
- reported conditions: PC3 cells, 6 h incubation, glutamate depletion; read-out: Assay b) GLS cell MOA Mean IC50
pIC50: −log10 of the molar value.
Criterion: pIC50 meeting or surpassing 8. Met: TRUE. Not met: FALSE.

[
  {
    "compound": "CCOC(C(=O)Nc1nnc(N[C@@H]2CCN(c3cccnn3)C2)s1)c1cccc(N2CC(F)(F)C2)c1 (single isomer, unassigned) [Example 30]",
    "label value": "TRUE"
  },
  {
    "compound": "COC(C(=O)Nc1nnc(N[C@@H]2CCN(c3ccc(C)nn3)C2)s1)c1cccc(N2CC(F)C2)c1 (single isomer, unassigned) [Example 36]",
    "label value": "FALSE"
  },
  {
    "compound": "COC(C(=O)Nc1nnc(N[C@@H]2CCN(c3ccc(F)nn3)C2)s1)c1cccc(N2CC(F)C2)c1 (single isomer, unassigned) [Example 27]",
    "label value": "TRUE"
  },
  {
    "compound": "COC[C@H](C(=O)Nc1nnc(N[C@@H]2CCN(c3ccc(C)nn3)C2)s1)c1ccccc1 (single isomer, unassigned) [Example 45(a)]",
    "label value": "FALSE"
  }
]
